target: KRAS G12S (Homo sapiens (Human), UniProt P01116+P62937, G12S); assay: Ras-Raf (BRAF RBD) disruption / FRET / MOA assay, KRAS G12S; format: biochemical; conditions: Ras-Raf disruption/FRET/MOA assay; class symbols; read-out: KRAS G12S FRET data IC50
Sequence (P01116-2 other isoform, or with tags, fused parts or gaps G12S): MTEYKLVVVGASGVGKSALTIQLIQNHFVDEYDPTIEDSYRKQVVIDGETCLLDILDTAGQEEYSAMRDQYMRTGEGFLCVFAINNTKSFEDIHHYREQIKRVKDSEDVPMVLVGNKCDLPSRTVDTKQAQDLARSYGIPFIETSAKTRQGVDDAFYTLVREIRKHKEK
Sequence (P62937 whole entry): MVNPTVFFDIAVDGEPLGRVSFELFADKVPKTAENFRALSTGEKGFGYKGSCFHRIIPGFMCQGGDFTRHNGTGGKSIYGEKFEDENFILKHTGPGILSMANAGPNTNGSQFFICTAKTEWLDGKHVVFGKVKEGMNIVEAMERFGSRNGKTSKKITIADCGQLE
pIC50: −log10 of the molar value.
valueKind: pIC50

Some solved entries appear below for comparison.
compound	pIC50
C=CC(=O)N1CC[C@@]2(CCN([C@H](C(=O)N[C@H]3Cc4cccc(c4)-c4ccc5c(c4)c(c(-c4cccnc4[C@H](C)OC)n5CC)CC(C)(C)COC(=O)[C@@H]4CCCN(N4)C3=O)C(C)C)C2=O)C1 (atropisomer, axis not shown)	5.00 to 6.00
C=CC(=O)N1CCN(C(=O)N(C)[C@H](C(=O)N[C@H]2Cc3nc(cs3)-c3ccc4c(c3)c(c(-c3cccnc3[C@H](C)OC)n4CC)CC(C)(C)COC(=O)[C@@H]3CCCN(N3)C2=O)C(C)C)[C@@H]2CC[C@@H]21 (atropisomer, axis not shown)	6.00 to 7.00
C=CC(=O)Nc1ccc(C(=O)N(C)[C@H](C(=O)N[C@H]2Cc3cc(O)cc(c3)-c3ccc4c(c3)c(c(-c3cccnc3[C@H](C)OC)n4CC)CC(C)(C)COC(=O)[C@@H]3CCCN(N3)C2=O)C(C)C)cn1 (atropisomer, axis not shown)	6.00 to 7.00
C=CC(=O)N1CC(OCC(C(=O)N[C@H]2Cc3nc(cs3)-c3ccc4c(c3)c(c(-c3cccnc3[C@H](C)OC)n4CC)CC(C)(C)COC(=O)[C@@H]3CCCN(N3)C2=O)C(C)C)C1 (mixture of isomers)	5.00 to 6.00
CCn1c(-c2ccccc2COC)c2c3cc(ccc31)-c1cc(O)cc(c1)C[C@H](NC(=O)[C@H](C(C)C)N(C)C(=O)[C@H]1CCN(C(=O)/C=C/CN(C)C)C1)C(=O)N1CCC[C@H](N1)C(=O)OCC(C)(C)C2	6.00 to 7.00

Record C=CC(=O)N1C[C@@H]2C[C@H]1CN2C(=O)N(C)[C@H](C(=O)N[C@H]1Cc2nc(cs2)-c2ccc3c(c2)c(c(-c2cccnc2[C@H](C)OC)n3CC)CC(C)(C)COC(=O)[C@@H]2CCCN(N2)C1=O)C(C)C (atropisomer, axis not shown) ; system KRAS G12S (Homo sapiens (Human), UniProt P01116+P62937, G12S); pIC50 = 6.00 to 7.00

Record "C=CC(=O)N1CC[C@H](C(=O)N(C)[C@H](C(=O)N[C@H]2Cc3cccc(c3)-c3ccc4c(c3)c(c(-c3cccnc3[C@H](C)OC)n4CC#N)CC(C)(C)COC(=O)[C@@H]3CCCN(N3)C2=O)C(C)C)C1" ; system KRAS G12S (Homo sapiens (Human), UniProt P01116+P62937, G12S); pIC50 = 5.00 to 6.00

Record C=CC(=O)N1CC[C@H](C(=O)N(C)[C@H](C(=O)NC2C[C@H]3CN(CCCO3)c3ccc4c(c3)c(c(-c3cccnc3[C@H](C)OC)n4CC)CC(C)(C)COC(=O)[C@@H]3CCCN(N3)C2=O)C(C)C)C1 (some centres unmarked) [Example A429] ; system KRAS G12S (Homo sapiens (Human), UniProt P01116+P62937, G12S); pIC50 = < 5.00

Origin of the recorded values: patent US11566007B2
